Biological target: Eukaryotic translation initiation factor 4E (Homo sapiens)
Assay: Inhibition of eIF4E binding to m7GDP in immobilized resin with HEK293 lysate at 500 uM by western blot analysis based competitive binding assay
Format: subcellular
Conditions: time 12.0 hrs
Active and inactive are the calls of the source. The rule behind the calls is not given here.

compound | inhibition
Cc1ncsc1-c1ccc(CNC(=O)C2C[C@H](O)CN2C(=O)[C@@H](NC(=O)CCCCCNP(=O)(O)OP(=O)(O)OC[C@H]2O[C@@H](n3c[n+](Cc4ccc(F)cc4)c4c(=O)[nH]c(N)nc43)[C@H](O)[C@@H]2O)C(C)(C)C)cc1 (some centres not stated) | Active
Cc1ncsc1-c1ccc(CNC(=O)C2C[C@H](O)CN2C(=O)[C@@H](NC(=O)CCCCCNP(=O)(O)OP(=O)(O)OC[C@H]2O[C@@H](n3c[n+](Cc4ccccc4)c4c(=O)[nH]c(N)nc43)[C@H](O)[C@@H]2O)C(C)(C)C)cc1 (some centres not stated) | Active

----------
Target: Eukaryotic translation initiation factor 4E (Homo sapiens)
Test: Inhibition of eIF4E binding to m7GDP in immobilized resin with HEK293 lysate at 500 uM by western blot analysis based competitive binding assay
Type: subcellular
Conditions: time 12.0 hrs
The source made the active and inactive calls. The calls are words filed in the database; no cut-off is given here.
Respond using exactly one of the listed classes: active, inactive

compound | label
Cc1ncsc1-c1ccc(CNC(=O)C2C[C@H](O)CN2C(=O)[C@@H](NC(=O)CCCCCNP(=O)(O)OP(=O)(O)OC[C@H]2O[C@@H](n3cnc4c(=O)[nH]c(N)nc43)[C@H](O)[C@@H]2O)C(C)(C)C)cc1 (some centres not stated) | inactive

IN: Outcome logged for Nc1nc2c(ncn2[C@@H]2O[C@H](COP(=O)(O)OP(=O)(O)NCCOCCOCCOCCOCCOCCOCCOCCC(=O)Nc3cccc4c3CN(C3CCC(=O)NC3=O)C4=O)[C@@H](O)[C@H]2O)c(=O)[nH]1 (some centres not stated) in this assay:
OUT: inactive

IN: Please give the result for Nc1nc2c(c(=O)[nH]1)[n+](Cc1ccccc1)cn2[C@@H]1O[C@H](COP(=O)(O)OP(=O)(O)NCCOCCOCCOCCOCCOCCOCCOCCC(=O)Nc2cccc3c2CN(C2CCC(=O)NC2=O)C3=O)[C@@H](O)[C@H]1O (some centres not stated) too.
OUT: active

IN: Please give the result for Nc1nc2c(c(=O)[nH]1)[n+](Cc1ccccc1)cn2[C@@H]1O[C@H](COP(=O)(O)OP(=O)(O)NCCCCCC(=O)Nc2cccc3c2CN(C2CCC(=O)NC2=O)C3=O)[C@@H](O)[C@H]1O (some centres not stated) too.
OUT: active

IN: Please give the result for Nc1nc2c(c(=O)[nH]1)[n+](Cc1ccc(F)cc1)cn2[C@@H]1O[C@H](COP(=O)(O)OP(=O)(O)NCCOCCOCCOCCC(=O)Nc2cccc3c2CN(C2CCC(=O)NC2=O)C3=O)[C@@H](O)[C@H]1O (some centres not stated) too.
OUT: active

IN: Please give the result for Nc1nc2c(c(=O)[nH]1)[n+](Cc1ccccc1)cn2[C@@H]1O[C@H](COP(=O)(O)OP(=O)(O)NCCOCCOCCOCCC(=O)Nc2cccc3c2CN(C2CCC(=O)NC2=O)C3=O)[C@@H](O)[C@H]1O (some centres not stated) too.
OUT: active

IN: Please give the result for Nc1nc2c(c(=O)[nH]1)[n+](Cc1ccc(F)cc1)cn2[C@@H]1O[C@H](COP(=O)(O)OP(=O)(O)NCCCCCC(=O)Nc2cccc3c2CN(C2CCC(=O)NC2=O)C3=O)[C@@H](O)[C@H]1O (some centres not stated) too.
OUT: active

----------
Target: Protein cereblon/Eukaryotic translation initiation factor 4E (Homo sapiens) (UniProt P06730+Q96SW2)
Sequence (P06730 whole entry, looked up): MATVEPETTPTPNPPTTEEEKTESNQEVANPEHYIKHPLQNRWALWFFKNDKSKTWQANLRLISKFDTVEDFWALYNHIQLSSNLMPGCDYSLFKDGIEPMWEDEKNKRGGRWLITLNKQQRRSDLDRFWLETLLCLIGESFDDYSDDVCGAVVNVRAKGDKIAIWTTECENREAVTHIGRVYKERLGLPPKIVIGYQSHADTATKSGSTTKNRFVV
Sequence (Q96SW2 whole entry, looked up): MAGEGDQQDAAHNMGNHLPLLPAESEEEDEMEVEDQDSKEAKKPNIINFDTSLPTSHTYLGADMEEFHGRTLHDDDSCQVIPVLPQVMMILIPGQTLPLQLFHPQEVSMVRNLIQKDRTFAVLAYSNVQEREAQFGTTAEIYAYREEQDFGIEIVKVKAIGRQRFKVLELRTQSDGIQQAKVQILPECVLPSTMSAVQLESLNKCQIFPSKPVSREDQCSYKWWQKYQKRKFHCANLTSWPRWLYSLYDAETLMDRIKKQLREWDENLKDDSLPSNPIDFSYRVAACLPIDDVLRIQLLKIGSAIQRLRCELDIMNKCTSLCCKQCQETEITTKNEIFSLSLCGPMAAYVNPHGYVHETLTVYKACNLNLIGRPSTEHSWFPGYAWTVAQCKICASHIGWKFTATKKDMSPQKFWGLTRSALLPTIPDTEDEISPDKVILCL
Assay: Protac activity at E3-liagse/eIF4E in human MDA-MB-231 cells assessed as reduction in eIF4E protein level at 25 to 200 uM after 24 to 72 hrs
Assay type: cell-based
Conditions: dose 25-200 µM, time 24-72 hrs
Activity calls are given as the source filed them. The rule behind the calls is not given here.
assay endpoint: Activity

compound | assay endpoint | value reported
Nc1nc2c(c(=O)[nH]1)[n+](Cc1ccc(F)cc1)cn2[C@@H]1O[C@H](COP(=O)(O)OP(=O)(O)NCCOCCOCCOCCOCCOCCOCCOCCC(=O)Nc2cccc3c2CN(C2CCC(=O)NC2=O)C3=O)[C@@H](O)[C@H]1O (stereo partly drawn) | Activity | inactive
Nc1nc2c(c(=O)[nH]1)[n+](Cc1ccc(F)cc1)cn2[C@@H]1O[C@H](COP(=O)(O)OP(=O)(O)NCCOCCOCCOCCC(=O)Nc2cccc3c2CN(C2CCC(=O)NC2=O)C3=O)[C@@H](O)[C@H]1O (stereo partly drawn) | Activity | inactive
Nc1nc2c(c(=O)[nH]1)[n+](Cc1ccc(F)cc1)cn2[C@@H]1O[C@H](COP(=O)(O)OP(=O)(O)NCCCCCC(=O)Nc2cccc3c2CN(C2CCC(=O)NC2=O)C3=O)[C@@H](O)[C@H]1O (stereo partly drawn) | Activity | inactive

----------
Target: Protein cereblon/Eukaryotic translation initiation factor 4E (Homo sapiens) (UniProt P06730+Q96SW2)
Assay: Protac activity at E3-liagse/eIF4E in human MDA-MB-231 cells assessed as reduction in eIF4E protein level at 25 to 200 uM after 24 to 72 hrs
Type: cell-based
Conditions: dose 25-200 µM, time 24-72 hrs
The source made the active and inactive calls. The rule behind the calls is not given here.

compound | Activity
Cc1ncsc1-c1ccc(CNC(=O)C2C[C@H](O)CN2C(=O)[C@@H](NC(=O)CCCCCNP(=O)(O)OP(=O)(O)OC[C@H]2O[C@@H](n3c[n+](Cc4ccccc4)c4c(=O)[nH]c(N)nc43)[C@H](O)[C@@H]2O)C(C)(C)C)cc1 (some centres not stated) | inactive
Nc1nc2c(c(=O)[nH]1)[n+](Cc1ccccc1)cn2[C@@H]1O[C@H](COP(=O)(O)OP(=O)(O)NCCOCCOCCOCCOCCOCCOCCOCCC(=O)Nc2cccc3c2CN(C2CCC(=O)NC2=O)C3=O)[C@@H](O)[C@H]1O (some centres not stated) | inactive
